Test system: MOLT-4 leukemia
assayProcedure: NCI tumour cell line growth inhibition, 48 h
measure: TGI

Some molecules with recorded TGI:
> print(dat)
                                   molecule  obsvalue
1  N=C(N)c1nn(C2OC(CO)C(O)C2O)c2nc[nH]c(=O)c12 (centres undefined)   4.12 µM
2                 c1csc(-c2cscc2-c2ccsc2)c1  > 100 µM
3  O=S1(=O)c2cnccc2NC(=NCc2cccc3ccccc23)N1c1ccccc1  > 100 µM

# evaluate next
Ask | Return value of TGI for input C=C1C(=O)OC2CC3(C)C=CC(=O)C(=C)C3CC12 (centres undefined) , no commentary.
Reply | 3.52 µM

Source of measurements: PubChem BioAssay (NCI)
